- MEASURED ON: Leukotriene B4 receptor (Homo sapiens) (UniProt Q9NPC1+Q15722)
- Sequence (Q15722 whole entry, looked up): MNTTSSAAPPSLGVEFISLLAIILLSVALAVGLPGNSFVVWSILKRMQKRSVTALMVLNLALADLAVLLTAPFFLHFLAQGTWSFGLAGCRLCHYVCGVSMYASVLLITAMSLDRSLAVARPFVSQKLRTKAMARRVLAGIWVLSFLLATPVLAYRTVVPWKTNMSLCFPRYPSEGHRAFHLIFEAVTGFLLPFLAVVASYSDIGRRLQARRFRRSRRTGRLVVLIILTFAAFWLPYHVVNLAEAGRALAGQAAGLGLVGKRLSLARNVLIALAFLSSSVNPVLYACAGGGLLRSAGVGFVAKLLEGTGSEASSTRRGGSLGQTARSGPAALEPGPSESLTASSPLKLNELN
- Sequence (Q9NPC1 whole entry, looked up): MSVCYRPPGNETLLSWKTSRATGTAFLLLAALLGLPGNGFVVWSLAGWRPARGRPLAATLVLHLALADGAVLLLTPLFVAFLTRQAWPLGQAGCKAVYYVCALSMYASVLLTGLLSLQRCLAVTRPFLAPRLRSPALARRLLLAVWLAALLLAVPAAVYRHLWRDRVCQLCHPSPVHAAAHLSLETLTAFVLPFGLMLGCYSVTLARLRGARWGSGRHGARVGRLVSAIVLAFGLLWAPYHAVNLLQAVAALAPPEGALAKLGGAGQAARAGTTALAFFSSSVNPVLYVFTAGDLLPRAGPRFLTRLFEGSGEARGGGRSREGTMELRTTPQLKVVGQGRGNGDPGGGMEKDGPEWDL
- EXPERIMENT SUMMARY: Antagonistic activity against Leukotriene B4 receptor by using [3H]- LTB4 as a radioligand at a concentration of 10e-6 M
- Assay type: functional
PROPERTY LABEL: inhibition (%)
Give bare numbers, in %.

Here is how some molecules turned out for inhibition.
COc1ccccc1CCCCCCOc1ccc(C(=O)c2cccc(C(=O)O)c2)cc1CCC(=O)O : 91
COc1ccc(C#CCCCCOc2ccc(C(=O)c3cccc(C(=O)O)c3)cc2CCC(=O)O)cc1 : 90
COc1cccc(CCCCCCOc2ccc(C(=O)c3cccc(C(=O)O)c3)cc2CCC(=O)O)c1 : 89
O=C(O)CCc1cc(C(=O)c2cccc(C(=O)O)c2)ccc1OCCCCCCc1ccc(O)cc1 : 90
COc1cccc(/C=C/CCCCOc2ccc(C(=O)c3cccc(C(=O)O)c3)cc2CCC(=O)O)c1 : 91

Return reported inhibition values for all items listed beneath this line.
1. CS(=O)(=O)c1ccc(/C=C/CCCCOc2ccc(C(=O)c3cccc(C(=O)O)c3)cc2CCC(=O)O)cc1
2. O=C(O)CCc1cc(C(=O)c2cccc(C(=O)O)c2)ccc1OCCCC/C=C/c1ccccc1

[89, 92]
